This section presents compounds with their documented Average Weight of Animals in Grams after Days 22 values.
assay: Average animal weight in MCF-7 mouse xenograft model; type: in vivo; conditions: nude mice with MCF-7 xenograft, i.p., day 22
Entry rule: numbers only, all in Grams.

*Q* Can you look up the measured Average Weight of Animals in Grams after Days 22 of CCOC(=O)Cn1cnc2scc(-c3cccs3)c2c1=O for me?
*A* 27.7

Others:
*Q* Can you look up the measured Average Weight of Animals in Grams after Days 22 of O=C(Cn1cnc2scc(-c3cccs3)c2c1=O)NNC(=S)Nc1ccccc1 for me?
*A* 24.4

*Q* Same for O=C(Cn1cnc2scc(-c3cccs3)c2c1=O)NN1C(=O)CSC1c1ccc(Cl)cc1 (centres unmarked)
*A* 23.6

*Q* Same for COc1cccc(C=NNC(=O)Cn2cnc3scc(-c4cccs4)c3c2=O)c1OC
*A* 23.5

*Q* Same for NC1=CC(N)N(NC(=O)Cn2cnc3scc(-c4cccs4)c3c2=O)C=C1 (centres unmarked)
*A* 25.2
